Test system: Escherichia coli TOP10;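 note: peptides expressed intracellularly from a pBAD plasmid library in pooled LB shake-flask culture, induced with 0.3% L-arabinose, DNA abundance read by NGS, three biological replicates, DESeq2 with apeglm shrinkage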
Experiment: shrunken log2 fold change of peptide-encoding DNA abundance (4.5 h post-induction vs induction); higher = less antimicrobial activity (less host growth inhibition)
Conditions: time post-induction: 4.5 h; library: site-saturation at positions 5, 18, 19, 20
shrunken log2 fold change of -0.09 or higher: satisfied. Under -0.09: not satisfied.

- sequence_chain: "RRIRYRPPRLPRPRPRPYMNPRP"
  measurement_target: "Escherichia coli TOP10"
  label_class: "satisfied"
- sequence_chain: "RRIRRRPPRLPRPRPRPDNGPRP"
  measurement_target: "Escherichia coli TOP10"
  label_class: "satisfied"
- sequence_chain: "RRIRLRPPRLPRPRPRPKANPRP"
  measurement_target: "Escherichia coli TOP10"
  label_class: "satisfied"
- sequence_chain: "RRIRARPPRLPRPRPRPANDPRP"
  measurement_target: "Escherichia coli TOP10"
  label_class: "satisfied"
- sequence_chain: "RRIRSRPPRLPRPRPRPKDIPRP"
  measurement_target: "Escherichia coli TOP10"
  label_class: "not satisfied"
- sequence_chain: "RRIRLRPPRLPRPRPRPYMFPRP"
  measurement_target: "Escherichia coli TOP10"
  label_class: "not satisfied"
